Test system: Enterococcus sp.
Procedure Text: in vitro antibacterial evaluation, MIC by broth dilution
Assay type: cell-based
Protocol Conditions: broth dilution, 18 hours at 35° C.
Numbered stars: 1 amine (or outer) side, 2 acyl side, 3 side chain; on linkers, the order of the positions; unused ones are H or OH. Square brackets hold non-standard residues; d marks the D form. Peptide text beside a SMILES is read from it. * marks the point of attachment. ξ: configuration not given here. X1 = N=C1NCC(C(O)C(N[*:1])C(=O)[*:2])N1C1OC(CO)C(O)C(O)C1O; ξEnduracididine(βξ-OH,4'ξ) = N=C1NCC(C(O)C(N)C(=O)O)N1; X2 = OCC1OC(OC2C(CO)OC(*)C(O)C2O)C(O)C(O)C1O; Diphenylacetyl = O=C(C(c1ccccc1)c1ccccc1)*; ξPhe(βξ-Me) = CC(c1ccccc1)C(N)C(=O)O
Response field label: string, one of met (MIC Enterococcus faecium (GC 4557) strictly below 2 µg/mL) or not met.

Is the reported MIC Enterococcus faecium (GC 4557) for CC(C1CCCCC1)C1NC(=O)CNC(=O)C(CO)NC(=O)C(C(O)C2CNC(=N)N2C2OC(CO)C(O)C(O)C2O)NC(=O)C(C(O)C2CNC(=N)N2)NC(=O)C(Cc2ccc(OC3OC(CO)C(OC4OC5COC6(OC5C(O)C4O)C4CC5CC(C4)CC6C5)C(O)C3O)cc2)NC1=O (centres unmarked) strictly below 2 µg/mL?
met

Item CC(c1ccccc1)C1NC(=O)CNC(=O)C(COC(=O)C(c2ccccc2)c2ccccc2)NC(=O)C(C(O)C2CNC(=N)N2C2OC(CO)C(O)C(O)C2O)NC(=O)C(C(O)C2CNC(=N)N2)NC(=O)C(Cc2ccc(OC3OC(CO)C(OC4OC(CO)C(O)C(O)C4O)C(O)C3O)cc2)NC1=O (stereo not drawn) [Example 96a] (cyclo(G[ξPhe(βξ-Me)]Y(X2)[ξEnduracididine(βξ-OH,4'ξ)][X1]S(Diphenylacetyl)); configuration not given here) : MIC Enterococcus faecium (GC 4557) beneath 2 µg/mL, strictly?
not met

I wonder whether COc1ccc2cc(COC3C(OC4C(CO)OC(Oc5ccc(CC6NC(=O)C(C(C)c7ccccc7)NC(=O)CNC(=O)C(CO)NC(=O)C(CC7CNC(=N)N7C7OC(CO)C(O)C(O)C7O)NC(=O)C(CC7CNC(=N)N7)NC6=O)cc5)C(O)C4O)OC(CO)C(O)C3O)ccc2c1 (centres unmarked) [Example 245c] has MIC Enterococcus faecium (GC 4557) below 2 µg/mL. Can you tell?
not met

MIC Enterococcus faecium (GC 4557) under 2 µg/mL? Item: CC(c1ccccc1)C1NC(=O)CNC(=O)C(CO)NC(=O)C(C(O)C2CNC(=N)N2C2OC(CO)C(O)C(O)C2O)NC(=O)C(C(O)C2CNC(=N)N2)NC(=O)C(Cc2ccc(OC3OC(CO)C(OC4OC5COC(c6ccccc6)OC5C(O)C4O)C(O)C3O)c(I)c2)NC1=O (centres unmarked)
not met

Here's an entry: CC(c1ccccc1)C1NC(=O)CNC(=O)C(CO)NC(=O)C(C(O)C2CNC(=N)N2C2OC(CO)C(O)C3OC(C)(C)OC32)NC(=O)C(C(O)C2CNC(=N)N2)NC(=O)C(Cc2ccc(OC3OC(CO)C(OC4OC5COC(C)(C)OC5C5OC(C)(C)OC45)C4OC(C)(C)OC34)cc2)NC1=O (centres unmarked) [Example 229b] . Is its MIC Enterococcus faecium (GC 4557) below 2 µg/mL?
not met

I'd appreciate it if you could check whether CC(c1ccccc1)C1NC(=O)CNC(=O)C(CO)NC(=O)C(C(O)C2CNC(=N)N2C2OC(CO)C(O)C3OC(C)(C)OC32)NC(=O)C(C(O)C2CNC(=N)N2)NC(=O)C(Cc2ccc(OC3OC(CO)C(OC4OC(CO)C(O)C5OC(C)(C)OC45)C4OC(C)(C)OC34)cc2)NC1=O (centres unmarked) [Example 229a] has MIC Enterococcus faecium (GC 4557) smaller than 2 µg/mL.
not met
